Every entry's value here was drawn from paper PMC5540273.

Tested on: CSF1R-autoinhibited;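 further: KINOMEscan kinase panel screen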
Settings: concentration: 1 μM, replicates: in singlicate; n = 1
quantityKind: %Inh (%)
Express your answer in %, writing the number without its unit.

Cc1nnc(-c2ccc3occ(-c4ccc(C(C)O)cc4)c3c2)o1 (centres unmarked)	6
c1ccc(-c2n[nH]cc2-c2ccnc3ccccc23)nc1 [GW271431]	11
Cc1ccc(C(=O)NCC(N)=O)cc1-n1c(C)cc(OCc2ccc(F)cc2F)c(Br)c1=O	0
Cn1cc(-c2ccc3c(c2)CCN3C(=O)Cc2ccccc2Cl)c2c(N)ncnc21 [GSK2608885]	0
CCc1ccnc(/C=C/c2n[nH]c3cc(Sc4ccccc4C(=O)NC)ccc23)c1	66
COC(=O)Nc1nc2cc(Oc3ccc(NC(=O)Nc4cc(F)ccc4F)cc3)ccc2[nH]1.Cl [GW701424]	50
CN(C(=O)c1ccc(-c2cc(-c3c[nH]nc3-c3ccccn3)ccn2)cc1)C1CCOCC1 [GW810083]	31

Let's switch to this molecule now.
(Q) Supply measured %Inh of Cc1c(Cn2c(C)nn3c(=O)cc(N4CCOC(C)C4)nc23)cccc1C(F)(F)F (centres unmarked) [GSK2344444] in your reply.
(A) 0
